# TEST TARGET: rat-species vanilloid receptor 1 (VR1/TRPV1) (Rattus norvegicus)
# Construct: endogenous in cells; host or cells: primary cultured rat dorsal root ganglion cells
# Sequence (O35433 whole entry): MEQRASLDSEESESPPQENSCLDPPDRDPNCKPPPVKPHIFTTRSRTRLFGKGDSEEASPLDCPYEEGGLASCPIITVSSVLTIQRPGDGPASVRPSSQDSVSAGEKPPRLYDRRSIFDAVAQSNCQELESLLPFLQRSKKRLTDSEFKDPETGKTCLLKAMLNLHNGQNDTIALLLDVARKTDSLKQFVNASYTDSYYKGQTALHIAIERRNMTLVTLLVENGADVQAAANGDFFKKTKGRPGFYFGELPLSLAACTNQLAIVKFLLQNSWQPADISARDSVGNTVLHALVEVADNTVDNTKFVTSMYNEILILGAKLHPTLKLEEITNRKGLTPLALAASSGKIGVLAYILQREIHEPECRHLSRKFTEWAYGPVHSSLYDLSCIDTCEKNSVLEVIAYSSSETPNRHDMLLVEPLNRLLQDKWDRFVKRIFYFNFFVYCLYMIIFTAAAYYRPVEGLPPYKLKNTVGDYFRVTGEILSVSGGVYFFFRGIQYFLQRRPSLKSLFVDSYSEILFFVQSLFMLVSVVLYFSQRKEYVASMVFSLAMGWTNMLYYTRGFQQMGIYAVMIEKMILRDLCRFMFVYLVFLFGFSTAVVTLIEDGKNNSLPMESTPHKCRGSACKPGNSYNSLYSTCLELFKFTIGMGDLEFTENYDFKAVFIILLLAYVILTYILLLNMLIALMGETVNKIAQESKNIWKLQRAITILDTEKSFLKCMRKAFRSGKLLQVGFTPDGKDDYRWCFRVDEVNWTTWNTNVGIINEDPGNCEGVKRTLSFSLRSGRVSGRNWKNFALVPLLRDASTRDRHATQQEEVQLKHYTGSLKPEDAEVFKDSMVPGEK
# ASSAY INFO: Functional testing on vanilloid receptor 1 (VR1/TRPV1), FLIPR Ca2+ inflow assay in rat dorsal root ganglia cells
# Assay type: cell-based
# CONDITION SUMMARY: test compound 10 μM, 5 min incubation, then 100 nM capsaicin; relative to maximum achievable inhibition with 10 μM capsaicin; read-out: VR1 (rat) (% inhibition compared to 10 μM CP)
Label scheme, based on inhibition at 10 µM: lower: < 50%; middle: ≥ 50% and < 90%; upper: ≥ 90%

CPD SMILES	CLASSIFICATION
CC(C)c1ccccc1NC(=O)N1CCC2(CC1)CC(C(=O)N1CCN(c3ncccc3Cl)CC1)=NO2	lower
CC(C)(C)c1ccc(NC(=O)N2CCC3(CC2)CC(C(=O)N2CCN(c4ncccc4Cl)CC2)=NO3)cc1	upper
CSc1cccc(NC(=O)N2CCC3(CC2)CC(C(=O)N2CCN(c4ncccc4Cl)CC2)=NO3)c1	middle
O=C(Nc1ccc(OC(F)(F)F)cc1)N1CCC2(CC1)CC(C(=O)N1CCN(c3ncccc3Cl)CC1)=NO2	middle
O=C(Nc1ccccc1F)N1CCC2(CC1)CC(C(=O)N1CCN(c3ncccc3Cl)CC1)=NO2	lower
COc1cccc(NC(=O)N2CCC3(CC2)CC(C(=O)N2CCN(c4ncccc4Cl)CC2)=NO3)c1	lower
O=C(Nc1ccc(Cl)cc1)N1CCC2(CC1)CC(C(=O)N1CCN(c3ncccc3Cl)CC1)=NO2	upper
O=C(Nc1ccc(S(F)(F)(F)(F)F)cc1)N1CCC2(CC1)CC(C(=O)N1CCN(c3ncccc3Cl)CC1)=NO2	upper
COc1ccc(NC(=O)N2CCC3(CC2)CC(C(=O)N2CCN(c4ncccc4Cl)CC2)=NO3)cc1	middle
O=C(Nc1ccc(Cl)c(C(F)(F)F)c1)N1CCC2(CC1)CC(C(=O)N1CCN(c3ncccc3Cl)CC1)=NO2	lower
